System: MCF7 cells
runDescription: Cell viability assay (CellTiter-Blue), MCF7 cells
Assay type: cell-based, human
setupConditions: MCF7 cells, 2 × 10^4 cells per well, DMEM + 10% FBS, 1% DMSO, 24 h at 37 °C, then CellTiter-Blue 4 h; three biological replicates fitted in Origin, standard error in brackets
Description: KB and MCF7 cells were kindly gifted by Prof. […] SK-OV-3, MCF7, and HEK293 cells were seeded at a density of 2 × 10^4 cells per well in a Nunc™ MicroWell™ 96-well plate and grown at 37 °C in a 5% CO2 atmosphere in DMEM supplemented with 10% (v/v) FBS for 24 h. […] The plate was incubated for another 4 h at 37 °C before analysis on a Perkin Elmer Victor X plate reader (excitation 531 nm; emission 595 nm). […] The fluorescent reading for these wells was deducted from the treatment readings. […]
propertyMeasured: EC50

For reference, reported EC50 for CC(C)C[C@@H](NC(=O)[C@@H](CCCCN)NC(=O)[C@H](CCCCNC(=O)[C@H](CCC(=O)O)NC(=O)c1ccc(NCc2cnc3nc(N)nc(O)c3n2)cc1)NC(=O)CCCCC[N+]1=C(/C=C/C=C2\N(C)c3ccccc3C2(C)C)C(C)(C)c2ccccc21)C(=O)N[C@H](C)C(=O)N[C@H](CCCCN)C(=O)N[C@H](CC(C)C)C(=O)N[C@H](C)C(=O)N[C@H](CCCCN)C(=O)N[C@H](CCCCN)C(=O)N[C@H](CC(C)C)C(=O)N[C@H](C)C(=O)N[C@H](CCCCN)C(=O)N[C@H](CC(C)C)C(=O)N[C@H](C)C(=O)N[C@H](CCCCN)C(N)=O [Compound 9] stands at 13.2 µM

For reference, reported EC50 for CC(C)C[C@H](NC(=O)[C@H](CCCCN)NC(=O)[C@H](C)NC(=O)[C@H](CC(C)C)NC(=O)[C@H](CCCCN)NC(=O)[C@H](CCCCN)NC(=O)[C@H](C)NC(=O)[C@H](CC(C)C)NC(=O)[C@H](CCCCN)NC(=O)[C@H](C)NC(=O)[C@H](CC(C)C)NC(=O)[C@@H](N)CCCCN)C(=O)N[C@@H](C)C(=O)N[C@@H](CCCCN)C(N)=O [Compound 2, reference compound] stands at > 400 µM

For reference, reported EC50 for CC(C)C[C@@H](NC(=O)[C@@H](CCCCN)NC(=O)CCCCC[N+]1=C(/C=C/C=C2\N(C)c3ccccc3C2(C)C)C(C)(C)c2ccccc21)C(=O)N[C@H](C)C(=O)N[C@H](CCCCN)C(=O)N[C@H](CC(C)C)C(=O)N[C@H](C)C(=O)N[C@H](CCCCN)C(=O)N[C@H](CCCCN)C(=O)N[C@H](CC(C)C)C(=O)N[C@H](C)C(=O)N[C@H](CCCCN)C(=O)N[C@H](CC(C)C)C(=O)N[C@H](C)C(=O)N[C@H](CCCCN)C(N)=O [Compound 6] stands at 5.7 µM

For reference, reported EC50 for CC(C)C[C@H](NC(=O)[C@H](CCCCN)NC(=O)[C@H](C)NC(=O)[C@H](CC(C)C)NC(=O)[C@H](CCCCN)NC(=O)[C@H](CCCCN)NC(=O)[C@H](C)NC(=O)[C@H](CC(C)C)NC(=O)[C@H](CCCCN)NC(=O)[C@H](C)NC(=O)[C@H](CC(C)C)NC(=O)[C@H](CCCCN)NC(=O)[C@H](CCCCNC(=O)[C@H](CCC(=O)O)NC(=O)c1ccc(NCc2cnc3nc(N)nc(O)c3n2)cc1)NC(=O)CCCCC[N+]1=C(/C=C/C=C2\N(C)c3ccccc3C2(C)C)C(C)(C)c2ccccc21)C(=O)N[C@@H](C)C(=O)N[C@@H](CCCCN)C(N)=O [Compound 8] stands at 49.4 µM

For reference, reported EC50 for CC(=O)N[C@@H](CCCCNC(=O)[C@H](CCC(=O)O)NC(=O)c1ccc(NCc2cnc3nc(N)nc(O)c3n2)cc1)C(=O)N[C@@H](CCCCN)C(=O)N[C@@H](CC(C)C)C(=O)N[C@@H](C)C(=O)N[C@@H](CCCCN)C(=O)N[C@@H](CC(C)C)C(=O)N[C@@H](C)C(=O)N[C@@H](CCCCN)C(=O)N[C@@H](CCCCN)C(=O)N[C@@H](CC(C)C)C(=O)N[C@@H](C)C(=O)N[C@@H](CCCCN)C(=O)N[C@@H](CC(C)C)C(=O)N[C@@H](C)C(=O)N[C@@H](CCCCN)C(N)=O [Compound 11] stands at > 400 µM

For reference, reported EC50 for CC(C)C[C@H](NC(=O)[C@H](CCCCN)NC(=O)CCCCC[N+]1=C(/C=C/C=C2\N(C)c3ccccc3C2(C)C)C(C)(C)c2ccccc21)C(=O)N[C@@H](C)C(=O)N[C@@H](CCCCN)C(=O)N[C@@H](CC(C)C)C(=O)N[C@@H](C)C(=O)N[C@@H](CCCCN)C(=O)N[C@@H](CCCCN)C(=O)N[C@@H](CC(C)C)C(=O)N[C@@H](C)C(=O)N[C@@H](CCCCN)C(=O)N[C@@H](CC(C)C)C(=O)N[C@@H](C)C(=O)N[C@@H](CCCCN)C(N)=O [Compound 5] stands at 7.37 µM

For reference, reported EC50 for CC(C)C[C@@H](NC(=O)[C@H](N)CCCCN)C(=O)N[C@H](C)C(=O)N[C@H](CCCCN)C(=O)N[C@H](CC(C)C)C(=O)N[C@H](C)C(=O)N[C@H](CCCCN)C(=O)N[C@H](CCCCN)C(=O)N[C@H](CC(C)C)C(=O)N[C@H](C)C(=O)N[C@H](CCCCN)C(=O)N[C@H](CC(C)C)C(=O)N[C@H](C)C(=O)N[C@H](CCCCN)C(N)=O [Compound 3, reference compound] stands at > 400 µM

For reference, reported EC50 for CC(=O)N[C@@H](CCCCNC(=O)[C@H](CCC(=O)O)NC(=O)c1ccc(NCc2cnc3nc(N)nc(O)c3n2)cc1)C(=O)N[C@H](CCCCN)C(=O)N[C@H](CC(C)C)C(=O)N[C@H](C)C(=O)N[C@H](CCCCN)C(=O)N[C@H](CC(C)C)C(=O)N[C@H](C)C(=O)N[C@H](CCCCN)C(=O)N[C@H](CCCCN)C(=O)N[C@H](CC(C)C)C(=O)N[C@H](C)C(=O)N[C@H](CCCCN)C(=O)N[C@H](CC(C)C)C(=O)N[C@H](C)C(=O)N[C@H](CCCCN)C(N)=O [Compound 12] stands at > 400 µM

###

Test system: mitochondria of SK-OV-3 cells
runDescription: Confocal microscopy, colocalisation with MitoTracker Green FM, SK-OV-3 cells
Type: cell-based, human
setupConditions: 10 µM conjugate, 10 min at 37 °C, imaged at 20X
propertyMeasured: Pearson's correlation coefficient of MitoTracker Green and Cy3 fluorescence

Measured on mitochondria of SK-OV-3 cells, CC(C)C[C@H](NC(=O)[C@H](CCCCN)NC(=O)[C@H](C)NC(=O)[C@H](CC(C)C)NC(=O)[C@H](CCCCN)NC(=O)[C@H](CCCCN)NC(=O)[C@H](C)NC(=O)[C@H](CC(C)C)NC(=O)[C@H](CCCCN)NC(=O)[C@H](C)NC(=O)[C@H](CC(C)C)NC(=O)[C@H](CCCCN)NC(=O)[C@H](CCCCNC(=O)[C@H](CCC(=O)O)NC(=O)c1ccc(NCc2cnc3nc(N)nc(O)c3n2)cc1)NC(=O)CCCCC[N+]1=C(/C=C/C=C2\N(C)c3ccccc3C2(C)C)C(C)(C)c2ccccc21)C(=O)N[C@@H](C)C(=O)N[C@@H](CCCCN)C(N)=O [Compound 8] has a documented Pearson's correlation coefficient of MitoTracker Green and Cy3 fluorescence of 0.53

Measured on mitochondria of SK-OV-3 cells, CC(C)C[C@@H](NC(=O)[C@@H](CCCCN)NC(=O)[C@H](CCCCNC(=O)[C@H](CCC(=O)O)NC(=O)c1ccc(NCc2cnc3nc(N)nc(O)c3n2)cc1)NC(=O)CCCCC[N+]1=C(/C=C/C=C2\N(C)c3ccccc3C2(C)C)C(C)(C)c2ccccc21)C(=O)N[C@H](C)C(=O)N[C@H](CCCCN)C(=O)N[C@H](CC(C)C)C(=O)N[C@H](C)C(=O)N[C@H](CCCCN)C(=O)N[C@H](CCCCN)C(=O)N[C@H](CC(C)C)C(=O)N[C@H](C)C(=O)N[C@H](CCCCN)C(=O)N[C@H](CC(C)C)C(=O)N[C@H](C)C(=O)N[C@H](CCCCN)C(N)=O [Compound 9] has a documented Pearson's correlation coefficient of MitoTracker Green and Cy3 fluorescence of 0.52

Measured on mitochondria of SK-OV-3 cells, CC(C)C[C@H](NC(=O)[C@H](CCCCN)NC(=O)CCCCC[N+]1=C(/C=C/C=C2\N(C)c3ccccc3C2(C)C)C(C)(C)c2ccccc21)C(=O)N[C@@H](C)C(=O)N[C@@H](CCCCN)C(=O)N[C@@H](CC(C)C)C(=O)N[C@@H](C)C(=O)N[C@@H](CCCCN)C(=O)N[C@@H](CCCCN)C(=O)N[C@@H](CC(C)C)C(=O)N[C@@H](C)C(=O)N[C@@H](CCCCN)C(=O)N[C@@H](CC(C)C)C(=O)N[C@@H](C)C(=O)N[C@@H](CCCCN)C(N)=O [Compound 5] has a documented Pearson's correlation coefficient of MitoTracker Green and Cy3 fluorescence of 0.76

Measured on mitochondria of SK-OV-3 cells, CC(C)C[C@@H](NC(=O)[C@@H](CCCCN)NC(=O)CCCCC[N+]1=C(/C=C/C=C2\N(C)c3ccccc3C2(C)C)C(C)(C)c2ccccc21)C(=O)N[C@H](C)C(=O)N[C@H](CCCCN)C(=O)N[C@H](CC(C)C)C(=O)N[C@H](C)C(=O)N[C@H](CCCCN)C(=O)N[C@H](CCCCN)C(=O)N[C@H](CC(C)C)C(=O)N[C@H](C)C(=O)N[C@H](CCCCN)C(=O)N[C@H](CC(C)C)C(=O)N[C@H](C)C(=O)N[C@H](CCCCN)C(N)=O [Compound 6] has a documented Pearson's correlation coefficient of MitoTracker Green and Cy3 fluorescence of 0.74
